Listing of recorded protease stability score by entry.
- protocol_notes: protease stability score; higher = more stable; yeast display proteolysis, trypsin and chymotrypsin
The answer should be a number; do not append a unit.

Use the examples below as a reference point.
- residue_sequence: "SEEEKYARKAIELMKHNYETGDFEKLSRLMDPHVRLHIGDKSHHGMDEFVHWVSQFDHMEMNVHDVRVQGDKIEIIGHLVVRIDGRERRTETYIHLHKFDGQWIVHTIEVR"
  protease stability score: 1.34
- residue_sequence: "SEDEEAAHRFLQMFLSTSHTGDEKESRELADPHVRIDIDGQKHHGRHEWVKVFRHLRIHNIEIKDYHVIDGRLRLDYKVDLEVGDKKIEHRLHIDVEKIDGRWEIQRVHLI"
  protease stability score: 1.58

Then this sequence:
Which protease stability score is listed for "SEDEESLKKFIELLFHSLHTGDWKDIHKNLDPHVRIEFNGQELHGREELIELIEELMKRFDHIHFRFRDVRIYGNKAVLETELELRVGDKSSRIDVTIIIEKVNGRWIIRRLHFK" ?
2.48

###

- protocol_notes: protease stability score; higher = more stable; yeast display proteolysis, trypsin and chymotrypsin;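 also: relative to predicted unfolded state with 0 unfolded-like and 1 meaning tenfold more protease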
assay_readout: protease stability score
The answer should be a number; do not append a unit.

Which protease stability score is listed for "SEDDEKLKDFLRMLIEVILTGDEERFFELLDPHARLEYGDKEFHGREVIYHWFFNEFRRIKGLVFRNIHLREHDVVDGRLQIDLEVHIIFNGKTRSHDIHFVATKIDGRWILRTESIK" ?
2.33

Which protease stability score is listed for "DEEKKAIRKVWELVIHSLVTGDEDSVEKLLDPHVRVHINGVHLHGMETFRHTFHEWRLEIKSVHIQDMDSINGVARLDISFVGRFKFDGRVEETIIDIHLVVNKINGRWVIEEQKFE" ?
1.48

Which protease stability score is listed for "DEQKHVFNNVLRWLLESLETGDEEDLERLMDPNTRLHINGQDLHGREALRKHIEHRLKSLGVDHVHLRVHDVHIIDGKIEVDSELDLKIGDKEIRMKVRLIALKINGRWLVKHFDVT" ?
1.29

###

- protocol_notes: protease stability score; higher = more stable; yeast display proteolysis, trypsin and chymotrypsin;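 also: relative to predicted unfolded state with 0 unfolded-like and 1 meaning tenfold more protease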
Use 1 as the dividing line for protease stability score, with the line itself on the y side and lower values as n.

Example cases with answers are listed next.
- residue_sequence: "DETEEMAEEVLRRFLEINRTGDWKDLHRLFDPNVRIVVNGQELHGMELYLKHEIKTRRKLGAKVEEVRLKHLDSQGEKIISEVEIIFDINGQEIRLDVRVIMNKIDGKWTIRELRIH"
  class_label: "y"
- residue_sequence: "HEEEELLERAMKELEHILRTGDWELHEKNADPHVKLDVNGRIVHGRELVITVLRRLFEELGVDHIHLHDFKVVGDKMHIDLRIHVGDKEFQLEIIIIKIDGRWHIHSERFN"
  class_label: "n"
- residue_sequence: "DEDRKHIHHMFELWVHFLHTGNEHQLINLVDPHVKLEIGDKHHHGWEQLETFERAFKKEFKHMKIRFELTDIRLINGRMEIDGRDHLHIGDKTIERHLHLVVTKVDGRWQIHSVIVD"
  class_label: "y"
- residue_sequence: "SEDEKIARDVIKLVLHAMRTGDEELFLKLADPNVRILFDGKELHGREEVIRFRERIDHFDIKRFDLRDMKIINGVMHVDVEIDGVLEVDGVRERRIEKVRWVVLKVDGRWRTHSIEIV"
  class_label: "y"
- residue_sequence: "DDEEREVHKATEDWFKLVKTGNEEVRHELLDPHTRLIIGDKEFHGREELLRWERELGYKFKTFIITDIKVQGNKAIIHGVDVGTINGVERHLDVRLLILKVNGKWITREIEVR"
  class_label: "y"
- residue_sequence: "DEKEEEYHRILREWMHWLLTGDWDKLLNNVDPHAKLTVNGREIHGMHLAVKLLVDTMRELRFHIEVKDTKVFNGVAFVDLRLHIHIGDKEHKNRSEVTLVIIDGRIHTIVIHDR"
  class_label: "y"
- residue_sequence: "DEDEEQLRKWTRLTWRDMITGNEDSLHRLFDPHTRLDIDGVDVHGMESVSRKISDEMKRFDHVDFHLHDMRIFNGRAHIDGRLRFHINGVHLERREVIVILKINGQWFNEQISYK"
  class_label: "n"
- residue_sequence: "SEDEEEIKKAVEILLKELRTGDEDSFEKNLDPNARVHDENHRSHGREEVTKWFYEFRKKFKNARHTFEHIIVVGDKVINHMRVEIDGVTINSLWFIKKVDGRWVITSIHIN"
  class_label: "y"
- residue_sequence: "SEEERLTEEFLTKFEEILETGDEELLWRLIDPHARTLFDGQEFHGREDFVMIFDELVRHAGFDVRHIHSIHVQGDKIEVRSTMVVNGRNFEIRLHLRKINGRWHIEEIEIR"
  class_label: "y"
- residue_sequence: "HEDEEEQRLANEIFHKMIWTGDEERLKDLMDPHVRIDVNGREVHGMEEWLEHFLQFKNMKFRVHFRENRIIDGVARSRTELRIIFDGREYRIDLIVIAQKINGRWILRSIEIR"
  class_label: "y"

Determine whether measured protease stability score meets or exceeds 1 for "DEEERIAEEMISDWIHVMRTGNEELLKDMADPHVKVYIDGRDFHGMEFLVREYRQYDHNDSELRHFTVQGNYVFSEQMLKLTVNGQTITWEVHYKSLKVDGRWIVTLILLK"
y

Determine whether measured protease stability score meets or exceeds 1 for "SEDQEEAEHVFEQWIRVLTTGDEETAHKMADPNTRMHFNGKDIHGMDTIAKEFHDLGITLQSIRMRHVERQGDKIHIHSRRTFEVNGVHLNTEVHHSLVKIDGRWTFQHTYVH"
n

###

- protocol_notes: protease stability score; higher = more stable; yeast display proteolysis, trypsin and chymotrypsin;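 also: relative to predicted unfolded state with 0 unfolded-like and 1 meaning tenfold more protease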
Listing of recorded protease stability score by entry.
The answer should be a number; do not append a unit.

- residue_sequence: "SELEESVRWAAEVFVKYTLTGNEHLLSRYFDPNVRVHFDGVDLHGREELSKLFLHIRFRRIHLRSEKEFEGHAELDQEHDGHYNGVRHNRTLRLHMIKINGQWITEVFILH"
  value_reported: 1.34
- residue_sequence: "DEDERLYRIALEFLIEWHETGDEDEITRNVDPDARVDINGRNLVGREKVHRTLKELGINVLHIHRVHIVNGRLDVDGTVRFNGRTHRTRIIMLKVDGKWILDWLFIH"
  value_reported: 1.56

Then this sequence:
Which protease stability score is listed for "DHEDERETWAYHMLIHAFRTGDERIHEELLDPNVRTDVDGRTSHGWENVVKLVHHVLRLLGIDHIRLRRSDVVDGRVYMQGDIRVNGRTIETRVTIQVINGRVHSWSVRAE" ?
1.6

###

- protocol_notes: protease stability score; higher = more stable; yeast display proteolysis, trypsin and chymotrypsin;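 also: relative to predicted unfolded state with 0 unfolded-like and 1 meaning tenfold more protease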
assay_readout: protease stability score

Use the examples below as a reference point.
- residue_sequence: "DEEHRSSHHAVEVQFRVLHTGDFHDLRRQLDPDVKFHIDGVNDHGREVFEERVRELGIKHLLIEDHHVEIQGEWAHLRMKGLMEINGKEIKLHIRYLLLKVNGRWSAHTVSIHLE"
  protease stability score: 1.36
- residue_sequence: "DEERELLKRFIELWFHAIKTGDEDQLIRLLDPHVRIDINGVDIHGMEKYIHEHLRLERERGFEIRDFKIKHIEIQGEKAHVDTRLSGMVDGRHVDVRNRFIIYKFNGRWIFHSFHVD"
  protease stability score: 1.24
- residue_sequence: "DEEDKLSKEFSRTWEEIWRTGDEQEIKHLADPDTRDLVYIDGVNIDNHGREEMSRSMREWRDKFKNAREHVTHSRAQGDKVEMRIRIDFNGREIDMIVKIIVVDGRLKEFEIEIR"
  protease stability score: 1.56

Which protease stability score is listed for "DDLEKWYEDIARLYHHNLLTGDEDVIHELLDPNVRLVVGDKHFHGRESVIEFLKRELTEIRIEDIKIKEVHWVGDFSINRGTLHIRINGVLFDVRSEVIFDVINGKIRRVTRIII" ?
1.6

Which protease stability score is listed for "SHEDELSRHILETWKEILDTGDEHTEHELADPNTRIEVDGRDIMGWHAWNHFLRKMGIKHIHFERVSIQGNKIHIDGIMEFDGRRRKTDIDLHVVNGRIESIRYEVK" ?
1.63

Which protease stability score is listed for "SEEKERNHEIAEILIKLWLTGDEDHFWQLADPNPRVDFDGQEIIGRESIMRLLEHLIRRLGINHKHVDHTERQGDKVHIEVRLDQGEYHRTLHLEFIYVNGRVKEVRIRSRER" ?
1.4

Which protease stability score is listed for "DEETKIIEHILEHWLRLIQTGDFHELFRLVDPNVRIDINGVEYHGREEMIKFWKEEVDKLGVDRIHTDLNRNEYQGDKIILHQEVRINGRHIDIHVHAEKVDGVWILRILKRD" ?
1.57

Which protease stability score is listed for "SEDEEQMKRFLDHWIHFLQTGDEEESNKLADPHTRMEIGDFELHGREEYRKWFRHIIERVDHTDVRTKDSDIVNGVAIHDIEIHIEVGDKRIRRKSEMVVLKVDGRWYIQRMHFI" ?
0.846

The reported numbers originate from the NTF2 design screens of Basanta et al. (2020).
